Reference for the values: the kinase profiling compilation of Christmann-Franck et al. (2016)

biological target: PHKG1 (human); assay: KINOMEscan competition binding; conditions: compound 10.0 µM
measured.endpoint: kinase still bound, per cent of control (%)
Kindly provide the numeric value in % only, without the unit symbol.

Examples with answers:
Nc1ccc(-c2ccc3ncc4ccc(=O)n(-c5cccc(C(F)(F)F)c5)c4c3c2)cn1 :: 100
COc1cc(C(=O)NC2CCN(C)CC2)ccc1Nc1ncc2c(n1)N(C1CCCC1)CCC(=O)N2C(C)C :: 100
O=C1Nc2ccc(I)cc2/C1=C/c1cc(Br)c(O)c(Br)c1 :: 85
Cc1cc([C@@H](C)Nc2ccccc2C(=O)O)c2nc(N3CCOCC3)cc(=O)n2c1 :: 93

Given the entry `Cn1c(=O)n(-c2ccc(C(C)(C)C#N)cc2)c2c3cc(-c4cnc5ccccc5c4)ccc3ncc21` , report its measured kinase still bound, per cent of control. 100

Another compound: `COc1cc(N2CCN(C)CC2)ccc1Nc1nc(N)c(C(=O)c2c(Cl)cccc2Cl)s1` 82

====

molecular target: AAK1 (human) (UniProt Q2M2I8); assay: KINOMEscan competition binding; conditions: compound 10.0 µM
Sequence (Q2M2I8 whole entry, looked up): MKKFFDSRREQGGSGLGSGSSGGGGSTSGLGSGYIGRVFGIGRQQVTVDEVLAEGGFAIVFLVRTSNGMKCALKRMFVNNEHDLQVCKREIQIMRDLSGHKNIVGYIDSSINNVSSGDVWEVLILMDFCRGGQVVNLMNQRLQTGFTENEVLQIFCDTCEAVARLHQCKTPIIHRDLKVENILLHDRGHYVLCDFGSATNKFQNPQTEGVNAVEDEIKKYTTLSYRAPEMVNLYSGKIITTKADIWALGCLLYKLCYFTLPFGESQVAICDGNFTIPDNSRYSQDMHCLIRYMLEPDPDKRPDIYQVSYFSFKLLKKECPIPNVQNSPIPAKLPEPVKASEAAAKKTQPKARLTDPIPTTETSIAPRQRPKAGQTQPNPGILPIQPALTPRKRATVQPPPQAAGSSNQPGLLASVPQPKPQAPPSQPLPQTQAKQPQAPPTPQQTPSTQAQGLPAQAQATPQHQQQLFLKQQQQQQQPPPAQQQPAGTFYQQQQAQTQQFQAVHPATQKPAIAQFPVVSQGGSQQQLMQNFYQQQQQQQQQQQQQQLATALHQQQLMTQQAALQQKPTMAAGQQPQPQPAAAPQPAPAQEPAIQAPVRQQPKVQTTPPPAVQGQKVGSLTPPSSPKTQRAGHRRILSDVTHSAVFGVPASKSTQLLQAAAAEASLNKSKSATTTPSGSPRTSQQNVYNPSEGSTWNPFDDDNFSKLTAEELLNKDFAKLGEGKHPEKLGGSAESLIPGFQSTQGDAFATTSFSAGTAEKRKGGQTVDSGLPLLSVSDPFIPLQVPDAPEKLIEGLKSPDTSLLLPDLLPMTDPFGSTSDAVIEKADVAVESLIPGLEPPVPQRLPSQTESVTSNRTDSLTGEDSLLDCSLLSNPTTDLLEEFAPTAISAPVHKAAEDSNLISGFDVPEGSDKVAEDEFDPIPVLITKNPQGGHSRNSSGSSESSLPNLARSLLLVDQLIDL
measured.endpoint: kinase still bound, per cent of control (%)
Kindly provide the numeric value in % only, without the unit symbol.

Examples with answers:
C=CC(=O)Nc1cccc(Oc2nc(Nc3ccc(N4CCN(C)CC4)cc3OC)ncc2Cl)c1 :: 7
CCN1CCN(Cc2ccc(Nc3ncc4c(n3)N(C)c3ccccc3C(=O)N4C)cc2C(F)(F)F)CC1 :: 36
C[C@@H](Oc1cc(-n2cnc3ccc(CN4CCN(C)CC4)cc32)sc1C(N)=O)c1ccccc1C(F)(F)F :: 40
Cc1ccc(NC(=O)c2cccc(C(C)(C)C#N)c2)cc1Nc1ccc2ncn(C)c(=O)c2c1 :: 100
CCCS(=O)(=O)Nc1ccc(F)c(C(=O)c2c[nH]c3ncc(-c4ccc(Cl)cc4)cc23)c1F :: 100

Given the entry `Cc1ccc2nc(NCCN)c3ncc(C)n3c2c1` , report its measured kinase still bound, per cent of control. 78

Another compound: `O=C(NOC[C@H](O)CO)c1ccc(F)c(F)c1Nc1ccc(I)cc1F` 100

Another compound: `CC[C@@H]1C(=O)N(C)c2cnc(Nc3ccc(C(=O)NC4CCN(C)CC4)cc3OC)nc2N1C1CCCC1` 100

Another compound: `CCC(=O)N1CCN(c2ccc(-n3c(=O)ccc4cnc5ccc(-c6cnc7ccccc7c6)cc5c43)cc2C(F)(F)F)CC1` 75

Another compound: `OCCCNc1cc(-c2ccnc(Nc3cccc(Cl)c3)n2)ccn1` 21

Another compound: `COc1cc(N2CCN(C)CC2)ccc1Nc1nc(N)c(C(=O)c2c(Cl)cccc2Cl)s1` 61

Another compound: `O=C(O)c1ccc(Nc2ncc3c(n2)-c2ccc(Cl)cc2C(c2c(F)cccc2F)=NC3)cc1` 90

Another compound: `O=C(NC1CC1)c1cccc(-c2ccc3c(NC(=O)C4CC4)n[nH]c3c2)c1` 10

Another compound: `C=CC(=O)Nc1cc(NC(=O)c2ccc(C)c(NC(=O)c3ccno3)c2)cc(C(F)(F)F)c1` 77

Another compound: `CCOc1cc2ncc(C#N)c(Nc3ccc(OCc4ccccn4)c(Cl)c3)c2cc1NC(=O)/C=C/CN(C)C` 68

Another compound: `Cc1ccc(C(=O)Nc2cccc(C(F)(F)F)c2)cc1Nc1cncc(C(N)=O)c1` 100

====

target: UniProtKB O94806; test: KINOMEscan competition binding; conditions: compound 10.0 µM
Sequence (O94806 whole entry, looked up): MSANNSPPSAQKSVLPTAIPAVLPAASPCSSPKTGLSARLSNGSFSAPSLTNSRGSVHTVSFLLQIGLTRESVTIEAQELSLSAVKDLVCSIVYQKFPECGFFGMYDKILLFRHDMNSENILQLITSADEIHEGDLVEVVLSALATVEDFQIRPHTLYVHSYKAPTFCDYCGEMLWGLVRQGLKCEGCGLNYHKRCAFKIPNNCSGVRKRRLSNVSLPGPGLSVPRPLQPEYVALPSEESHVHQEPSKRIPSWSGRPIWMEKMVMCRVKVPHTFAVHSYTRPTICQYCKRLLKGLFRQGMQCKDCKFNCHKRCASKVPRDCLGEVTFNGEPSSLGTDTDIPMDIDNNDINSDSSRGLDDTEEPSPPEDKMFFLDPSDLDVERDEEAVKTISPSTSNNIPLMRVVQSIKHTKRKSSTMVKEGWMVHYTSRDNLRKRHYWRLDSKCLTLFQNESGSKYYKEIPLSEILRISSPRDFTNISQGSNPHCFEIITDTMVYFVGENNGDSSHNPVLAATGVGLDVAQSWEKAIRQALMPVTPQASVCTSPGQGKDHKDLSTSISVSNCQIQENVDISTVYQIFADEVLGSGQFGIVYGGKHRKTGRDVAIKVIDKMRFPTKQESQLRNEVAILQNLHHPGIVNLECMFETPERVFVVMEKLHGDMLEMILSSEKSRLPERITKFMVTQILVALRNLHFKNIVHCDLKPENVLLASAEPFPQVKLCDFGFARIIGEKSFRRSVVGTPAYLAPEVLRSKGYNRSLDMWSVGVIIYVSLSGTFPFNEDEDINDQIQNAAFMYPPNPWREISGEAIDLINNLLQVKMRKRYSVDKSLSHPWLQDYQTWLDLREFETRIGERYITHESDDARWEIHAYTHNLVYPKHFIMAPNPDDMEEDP
measured.endpoint: kinase still bound, per cent of control (%)
Kindly provide the numeric value in % only, without the unit symbol.

Examples with answers:
COc1cc(C(=O)NC2CCN(C)CC2)ccc1Nc1ncc2c(n1)N(C1CCCC1)CCC(=O)N2C(C)C :: 100
CCCS(=O)(=O)Nc1ccc(F)c(C(=O)c2c[nH]c3ncc(-c4ccc(Cl)cc4)cc23)c1F :: 44
C=CC(=O)Nc1cccc(Oc2nc(Nc3ccc(N4CCN(C)CC4)cc3OC)ncc2Cl)c1 :: 10
N#Cc1c(NC(=O)c2cccc3ccccc23)sc2c1CCCC2 :: 84
CC[C@@H]1C(=O)N(C)c2cnc(Nc3ccc(C(=O)NC4CCN(C)CC4)cc3OC)nc2N1C1CCCC1 :: 10
CN(C)C/C=C/C(=O)Nc1cccc(Nc2ncc3c(n2)N(C)c2ccccc2C(=O)N3C)c1 :: 19

Given the entry `Nc1ccc(-c2ccc3ncc4ccc(=O)n(-c5cccc(C(F)(F)F)c5)c4c3c2)cn1` , report its measured kinase still bound, per cent of control. 100

Another molecule: `Cc1ccc(NC(=O)c2cccc(C(C)(C)C#N)c2)cc1Nc1ccc2ncn(C)c(=O)c2c1` 88

Another molecule: `Cc1ccc(C(=O)Nc2cccc(C(F)(F)F)c2)cc1Nc1cncc(C(N)=O)c1` 100

====

biological target: JAK3 JH1 catalytic (human); experiment: KINOMEscan competition binding; details: compound 10.0 µM
measured.endpoint: kinase still bound, per cent of control (%)
Kindly provide the numeric value in % only, without the unit symbol.

Examples with answers:
Cn1c(=O)n(-c2ccc(C(C)(C)C#N)cc2)c2c3cc(-c4cnc5ccccc5c4)ccc3ncc21 :: 100
C[C@@H](Oc1cc(-n2cnc3ccc(CN4CCN(C)CC4)cc32)sc1C(N)=O)c1ccccc1C(F)(F)F :: 10
Cc1ccc(C(=O)Nc2cccc(C(F)(F)F)c2)cc1Nc1cncc(C(N)=O)c1 :: 100

Given the entry `Nc1ccc(-c2ccc3ncc4ccc(=O)n(-c5cccc(C(F)(F)F)c5)c4c3c2)cn1` , report its measured kinase still bound, per cent of control. 100

Another compound: `Cc1ccc(NC(=O)c2cccc(C(C)(C)C#N)c2)cc1Nc1ccc2ncn(C)c(=O)c2c1` 87

====

// reported kinase still bound, per cent of control for each item listed
system: EIF2AK4 KD2 (human), Q9P2K8 [S808G]; assay: KINOMEscan competition binding; settings: compound 10.0 µM
Sequence (Q9P2K8 whole entry S808G, looked up): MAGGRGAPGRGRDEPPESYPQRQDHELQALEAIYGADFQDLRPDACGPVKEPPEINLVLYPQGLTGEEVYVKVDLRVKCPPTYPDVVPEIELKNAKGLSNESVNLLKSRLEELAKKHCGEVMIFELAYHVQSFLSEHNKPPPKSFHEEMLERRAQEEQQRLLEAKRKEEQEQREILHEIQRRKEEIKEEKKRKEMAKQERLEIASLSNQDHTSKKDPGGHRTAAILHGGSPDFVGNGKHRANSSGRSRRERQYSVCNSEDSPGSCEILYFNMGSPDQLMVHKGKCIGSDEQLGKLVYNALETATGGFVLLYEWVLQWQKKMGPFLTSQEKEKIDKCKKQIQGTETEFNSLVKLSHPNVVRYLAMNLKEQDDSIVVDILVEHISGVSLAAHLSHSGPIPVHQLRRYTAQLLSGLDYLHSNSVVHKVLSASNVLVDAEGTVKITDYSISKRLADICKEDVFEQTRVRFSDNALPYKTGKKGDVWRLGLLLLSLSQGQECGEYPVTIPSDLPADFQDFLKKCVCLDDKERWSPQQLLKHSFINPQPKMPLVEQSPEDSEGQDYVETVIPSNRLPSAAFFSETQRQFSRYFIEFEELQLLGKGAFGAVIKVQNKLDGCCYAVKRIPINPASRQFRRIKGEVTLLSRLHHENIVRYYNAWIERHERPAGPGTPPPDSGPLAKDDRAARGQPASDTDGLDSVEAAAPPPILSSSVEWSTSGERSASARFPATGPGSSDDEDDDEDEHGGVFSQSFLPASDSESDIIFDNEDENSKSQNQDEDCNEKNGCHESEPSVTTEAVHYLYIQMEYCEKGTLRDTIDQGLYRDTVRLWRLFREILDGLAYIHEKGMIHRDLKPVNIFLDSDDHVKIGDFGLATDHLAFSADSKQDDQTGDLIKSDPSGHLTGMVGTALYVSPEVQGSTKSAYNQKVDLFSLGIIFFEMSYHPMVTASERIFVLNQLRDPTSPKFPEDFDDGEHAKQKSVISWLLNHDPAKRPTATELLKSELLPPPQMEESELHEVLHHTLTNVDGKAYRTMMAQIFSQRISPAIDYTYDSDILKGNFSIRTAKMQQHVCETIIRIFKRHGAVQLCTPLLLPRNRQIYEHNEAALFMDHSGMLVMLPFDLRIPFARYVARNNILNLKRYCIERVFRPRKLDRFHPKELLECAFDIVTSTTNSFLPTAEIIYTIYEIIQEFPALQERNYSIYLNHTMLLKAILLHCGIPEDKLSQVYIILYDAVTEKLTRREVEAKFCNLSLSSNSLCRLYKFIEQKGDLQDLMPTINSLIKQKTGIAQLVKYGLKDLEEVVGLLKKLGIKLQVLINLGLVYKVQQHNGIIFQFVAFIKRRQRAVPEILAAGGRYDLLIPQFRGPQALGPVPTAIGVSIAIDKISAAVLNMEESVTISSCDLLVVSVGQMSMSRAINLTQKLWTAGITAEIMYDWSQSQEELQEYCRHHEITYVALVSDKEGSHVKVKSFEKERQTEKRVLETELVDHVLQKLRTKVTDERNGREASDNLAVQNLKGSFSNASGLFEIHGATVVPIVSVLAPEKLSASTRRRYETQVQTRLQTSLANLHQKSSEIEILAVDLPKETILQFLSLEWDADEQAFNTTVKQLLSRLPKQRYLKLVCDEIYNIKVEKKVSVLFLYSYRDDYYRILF

CNC(=O)Nc1ccc(-c2nc(N3CC4CCC(C3)O4)c3cnn(C4CCC5(CC4)OCCO5)c3n2)cc1 :: 83%
CCN1CCN(C(=O)Cc2ccc(Nc3ncc(F)c(Nc4ccc(C(=O)Nc5ccccc5Cl)cc4)n3)cc2)CC1 :: 0.4%
OCCCNc1cc(-c2ccnc(Nc3cccc(Cl)c3)n2)ccn1 :: 100%
CCN1CCN(Cc2ccc(Nc3ncc4c(n3)N(C)c3ccccc3C(=O)N4C)cc2C(F)(F)F)CC1 :: 88%
Cn1c(=O)n(-c2ccc(C(C)(C)C#N)cc2)c2c3cc(-c4cnc5ccccc5c4)ccc3ncc21 :: 100%
COCC(=O)NC/C=C/c1ccc2ncnc(Nc3ccc(Oc4ccc(C)nc4)c(C)c3)c2c1 :: 81%

Given the entry `CN(C)C/C=C/C(=O)Nc1cccc(Nc2ncc3c(n2)N(C)c2ccccc2C(=O)N3C)c1` , report its measured kinase still bound, per cent of control. 62%

Another compound: `CC[C@@H]1C(=O)N(C)c2cnc(Nc3ccc(C(=O)NC4CCN(C)CC4)cc3OC)nc2N1C1CCCC1` 100%

Another compound: `Cc1n[nH]c2ccc(-c3cncc(OC[C@@H](N)Cc4c[nH]c5ccccc45)c3)cc12` 100%

Another compound: `N#CCNC(=O)c1ccc(-c2ccnc(Nc3ccc(N4CCOCC4)cc3)n2)cc1` 1.2%

Another compound: `C=CC(=O)Nc1cc(-n2c(=O)ccc3cnc4ccc(-c5cn[nH]c5)cc4c32)ccc1C` 100%

Another compound: `O=C1NC(=O)/C(=C/c2ccc3nccc(-c4ccncc4)c3c2)S1` 7.4%

Another compound: `CS(=O)(=O)N1CCN(Cc2cc3nc(-c4cccc5[nH]ncc45)nc(N4CCOCC4)c3s2)CC1` 100%

Another compound: `O=c1cc(N2CCOCC2)oc2c(-c3cccc4c3sc3ccccc34)cccc12` 100%

Another compound: `C=CC(=O)Nc1cccc(Oc2nc(Nc3ccc(N4CCN(C)CC4)cc3OC)ncc2Cl)c1` 0.35%

Another compound: `Cc1cn(-c2cc(C(=O)Nc3ccc(C)c(NC(=O)c4ccno4)c3)cc(C(F)(F)F)c2)cn1` 100%

Another compound: `Cc1ccc2nc(NCCN)c3ncc(C)n3c2c1` 98%

Another compound: `N#Cc1cc(-c2ccnc(Nc3ccc(-n4cnc(-c5cccnc5)n4)cc3)n2)cc(N2CCOCC2)c1` 3.3%

Another compound: `COc1ccc(N(C(=O)Oc2cc(C(=O)Nc3cccc(C(F)(F)F)c3)ccc2C)c2ccnc(Nc3ccc(N4CCN(C)CC4)cc3)n2)c(OC)c1` 100%

Another compound: `O=C(O)c1ccc(Nc2ncc3c(n2)-c2ccc(Cl)cc2C(c2c(F)cccc2F)=NC3)cc1` 79%

Another compound: `Cc1ccc(NC(=O)c2cccc(C(C)(C)C#N)c2)cc1Nc1ccc2ncn(C)c(=O)c2c1` 85%

====

molecular target: RIPK4 (human); assay: KINOMEscan competition binding; settings: compound 10.0 µM
measured.endpoint: kinase still bound, per cent of control (%)
Kindly provide the numeric value in % only, without the unit symbol.

Given the entry `C=CC(=O)Nc1cc(NC(=O)c2ccc(C)c(NC(=O)c3ccno3)c2)cc(C(F)(F)F)c1` , report its measured kinase still bound, per cent of control. 86
